biological target: PHGDH (Homo sapiens (Human), UniProt O43175); assay: PHGDH inhibition, coupled assay with PSAT1/PSPH and diaphorase/resazurin readout; conditions: Table E9; mixture with PSAT1, PSPH; diaphorase/resazurin reporter
Sequence (O43175 whole entry): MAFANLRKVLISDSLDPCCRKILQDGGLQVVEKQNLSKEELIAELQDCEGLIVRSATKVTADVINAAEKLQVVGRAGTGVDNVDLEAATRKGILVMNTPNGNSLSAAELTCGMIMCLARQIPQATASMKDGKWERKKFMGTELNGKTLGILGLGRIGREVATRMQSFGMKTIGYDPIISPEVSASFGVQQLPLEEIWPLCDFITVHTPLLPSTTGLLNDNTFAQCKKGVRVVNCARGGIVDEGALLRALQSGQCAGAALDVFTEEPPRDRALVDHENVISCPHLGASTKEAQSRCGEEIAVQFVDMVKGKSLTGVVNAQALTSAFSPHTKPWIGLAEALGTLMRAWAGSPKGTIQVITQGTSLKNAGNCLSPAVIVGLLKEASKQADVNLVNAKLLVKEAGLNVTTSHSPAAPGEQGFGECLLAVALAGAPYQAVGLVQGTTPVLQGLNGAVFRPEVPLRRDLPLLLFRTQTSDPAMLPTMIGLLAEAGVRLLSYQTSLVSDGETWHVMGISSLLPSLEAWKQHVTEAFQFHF
# IC50 per entry
resultType: IC50

{"compound": "CC(=O)N1CCN(C(=S)Nc2cc(C)ccn2)CC1 [Compound 18]", "valueReported": "≥ 20 µM"}
{"compound": "FC(F)(F)c1cccc(N2CCN(C(=S)Nc3cc[nH]n3)CC2)c1 [Compound 237]", "valueReported": "≥ 20 µM"}
{"compound": "Cc1cc(C)nc(NC(=S)N2CCN(c3ccc4cnccc4c3)CC2)c1 [Compound 148]", "valueReported": "10 to 20 µM"}
{"compound": "COc1cccc(NC(=S)N2CCN(c3ncc(C(F)(F)F)cc3Cl)CC2)n1 [Compound 195]", "valueReported": "< 5 µM"}
{"compound": "Cc1ccnc(NC(=S)N2CC[C@@H](Nc3cccc(C(F)(F)F)c3)C2)c1 [Compound 55]", "valueReported": "≥ 20 µM"}
{"compound": "Cc1cc(C)nc(NC(=S)N2CCN(c3coc4ccccc34)CC2)c1 [Compound 86]", "valueReported": "10 to 20 µM"}
{"compound": "Cc1cc(C)nc(NC(=S)N2CCN(c3nncs3)CC2)c1 [Compound 131]", "valueReported": "≥ 20 µM"}
{"compound": "COc1cc(NC(=S)N2CCN(c3cccc(C(F)(F)F)c3)CC2)nc2ccccc12 [Compound 130]", "valueReported": "10 to 20 µM"}
{"compound": "Cc1cc(C)nc(NC(=S)N2CCN(c3nnc(C(F)(F)F)s3)CC2)c1 [Compound 107]", "valueReported": "10 to 20 µM"}
{"compound": "OCc1ccnc(NC(=S)N2CCN(c3cccc(C(F)(F)F)c3)CC2)c1 [Compound 27]", "valueReported": "≥ 20 µM"}
{"compound": "COc1ccnc(NC(=S)N2CCN(c3cccc(Cl)c3Cl)CC2)c1 [Compound 180]", "valueReported": "5 to 10 µM"}
{"compound": "FC(F)(F)c1cccc(N2CCN(C(=S)Nc3cc(C(F)(F)F)ccn3)CC2)c1 [Compound 26]", "valueReported": "5 to 10 µM"}
{"compound": "Cc1ccnc(NC(=S)N2CCN(c3cccc(N(C)C)c3)CC2)c1 [Compound 6]", "valueReported": "10 to 20 µM"}
{"compound": "COc1ccnc(NC(=S)N2CCN(c3cc(Cl)cc(Cl)c3)CC2)c1 [Compound 178]", "valueReported": "5 to 10 µM"}
{"compound": "Cc1cc(C)nc(NC(=S)N2CCN(CC3CCCCC3)CC2)c1 [Compound 255]", "valueReported": "< 5 µM"}
